system: HeLa cells; experiment: Anti-proliferative assay, HeLa cells; type: cell-based; conditions: Homo sapiens, HeLa
Quantity Kind: pIC50
A value of pIC50 is the negative decimal logarithm of a concentration given in moles per litre.

- Compound: "COCC1OC(=O)C(=CNCCCCCC(=O)O)C2=C(O)C(=O)C3=C(C(OC(C)=O)CC4(C)C(=O)CCC34)C21C (stereo not drawn)"
  pIC50: 4.20

Record COC[C@H]1OC(=O)c2coc3c2[C@@]1(C)C1=C(C3=O)[C@@H]2CCC(=O)[C@@]2(C)C[C@H]1OC(C)=O . Reported pIC50: 4.39

Please fill in: pIC50 reported for COCC1OC(=O)C(=CN(C)CCCCCC(=O)O)C2=C(O)C(=O)C3=C(C(OC(C)=O)CC4(C)C(=O)CCC34)C21C (stereo not drawn) = 4.96

----------
assay: physchem; type: physicochemical; conditions: buffer, pH 6.8, Half Life
Below, each of the compounds is paired with its reported half-life value.
Quick note: give the figure in h, leave out the unit.

The following compounds have reported results that may help.
- Compound: "COC[C@H]1OC(=O)c2coc3c2[C@@]1(C)C1=C(C3=O)[C@@H]2CCC(=O)[C@@]2(C)C[C@H]1OC(C)=O [wortmannin]"
  Units Of Measure: "h"
  half-life: 57.8
- Compound: "COCC1OC(=O)C(=CNCCCCCC(=O)O)C2=C(O)C(=O)C3=C(C(OC(C)=O)CC4(C)C(=O)CCC34)C21C (stereo not drawn) [Example 2, wortmannin C20-NH-hexanoic acid]"
  Units Of Measure: "h"
  half-life: 131

From here, focus on the item given below.
Entry COCC1OC(=O)C(=CN(C)CCCCCC(=O)O)C2=C(O)C(=O)C3=C(C(OC(C)=O)CC4(C)C(=O)CCC34)C21C (stereo not drawn) [Example 1, wortmannin C20-N(Me)-hexanoic acid] , half-life reported as 8.7

----------
assay: physchem; type: physicochemical; conditions: pH 6.8, Half Life
Quantity Kind: half-life at 2.26 mM (h)
Quick reminder: number only, in h, skip the unit.

GET /value?item= COC[C@H]1OC(=O)c2coc3c2[C@@]1(C)C1=C(C3=O)[C@@H]2CCC(=O)[C@@]2(C)C[C@H]1OC(C)=O &field=half-life at 2.26 mM returns 3.85
